Assign BCM serum Ca to each entry below.
organism: Rattus norvegicus; experiment: Bone calcium-mobilizing (BCM) activity at 260 pmol/day *7day in vitamin D deficient rats on a low-calcium diet ([…]); type: functional
Report the value in mg 100ml-1 with no unit label.

Prompt: If you can, please state the reported BCM serum Ca value of C=C1/C(=C\C=C2/CCC[C@]3(C)[C@@H]([C@H](C)CCCC(C)(C)O)CC[C@@H]23)C[C@H](O)[C@H](C)[C@H]1O (stereo in doubt; form 1) .
Response: 4.3

Prompt: What does the data say about its BCM serum Ca? Entry: C=C1/C(=C\C=C2/CCC[C@]3(C)[C@@H]([C@@H](C)CCCC(C)(C)O)CC[C@@H]23)C[C@H](O)[C@@H](C)[C@@H]1O (stereo in doubt; form 1)
Response: 4.4

Prompt: I have this molecule here, C=C1/C(=C\C=C2/CCC[C@]3(C)[C@@H]([C@H](C)CCCC(C)(C)O)CC[C@@H]23)C[C@@H](O)[C@H](C)[C@H]1O (stereo in doubt; form 1) , and I need its recorded BCM serum Ca.
Response: 4.8

Prompt: Can you look up the measured BCM serum Ca of C=C1/C(=C\C=C2/CCC[C@]3(C)[C@@H]([C@@H](C)CCCC(C)(C)O)CC[C@@H]23)C[C@H](O)[C@@H](C)[C@H]1O (stereo in doubt; form 1) for me?
Response: 4.4

Prompt: # input molecule: C=C1/C(=C\C=C2/CCC[C@]3(C)[C@@H]([C@@H](C)CCCC(C)(C)O)CC[C@@H]23)C[C@H](O)[C@@H](C)[C@H]1O (stereo in doubt; form 2) ; wanted: its BCM serum Ca
Response: 4.1
